Test system: HT-29
Experiment: NCI tumour cell line growth inhibition, 48 h
The source made the active and inactive calls. No stated cut-off is given here; in the data, active = GI50 up to about 1.1 µM and inactive = higher. Where a SMILES comes first, the peptide text is derived from it. The star is where a group is joined. ONb = O=[N+]([O-])c1ccc(CO*)cc1; Boc = CC(C)(C)OC(=O)*
QUANTITY: GI50

Here's what some known entries look like.
# COMPOUND, GI50
records = [
    ("CC(C)C12C=CC(C)(CC1)n1c(=O)c3cc4ccccc4cc3c(=O)n12 (stereo not given)", "45.1 µM (inactive)"),
    ("COC1N(C2CC(O)C(CO)O2)C(=O)NC(=O)C1(F)Br (stereo not given)", "20 µM (inactive)"),
    ("CC(C)CC(NC(=O)OC(C)(C)C)C(=O)NC(CCC(=O)OCc1ccc([N+](=O)[O-])cc1)C(=O)OCc1ccc([N+](=O)[O-])cc1 (stereo not drawn) (Boc-Leu-Glu(ONb)-ONb; configuration not given here)", "21.2 µM (inactive)"),
    ("COc1cc2ccc1NC(=O)N1CCN(CC1)C(=O)Nc1ccc(cc1OC)-c1ccc(c(OC)c1)NC(=O)N1CCN(CC1)C(=O)Nc1ccc-2cc1OC", "> 100 µM (inactive)"),
    ("COCOc1cc(OC)ccc1C/C(=N/O)C(=O)OC", "> 100 µM (inactive)"),
]

Parameters: items (list). Returns: GI50 for each item.
1. COc1ccc(C(=O)Cc2ccc(Cl)cc2)cc1OC
2. O=C(c1ccncc1)C1C(=O)c2ccccc2C1C1(O)c2ccccc2CC1C(O)c1ccncc1 (stereo not given)
3. CCC12CCCN3CCc4c(n(c5ccccc45)C(O)(C(=O)OC)C1)C32 (stereo not given)
4. Nc1c(Br)cc(-c2nc3ccccc3s2)cc1Br
5. COc1ccc(C(=O)c2sc(Nc3ccccc3)nc2N)cc1

["> 100 µM (inactive)", "35.6 µM (inactive)", "> 100 µM (inactive)", "> 100 µM (inactive)", "> 100 µM (inactive)"]

###

System: OVCAR-3
Experiment: NCI tumour cell line growth inhibition, 48 h
The source made the active and inactive calls. Rule as the data show it: active = GI50 up to about 1.1 µM and inactive = higher.
I'd be grateful if you could share measured GI50 for these entries.

# COMPOUND, TESTED TARGET, GI50
data = [
    ("CC(=N/N=C/c1ccccn1)/C(C)=N/N=C(C)/C(C)=N/N=C(C)/C(C)=N/N=C(C)/C(C)=N\\N=C\\c1ccccn1", "OVCAR-3", "> 100 µM (inactive)"),
    ("Cc1nc(-c2nc(C)c(C(=O)NN(C)C)s2)sc1C(=O)NN(C)C", "OVCAR-3", "> 100 µM (inactive)"),
    ("c1ccc(COC2(OCc3ccccc3)CC3OC2C2NN=NC32)cc1 (stereo not given)", "OVCAR-3", "18.3 µM (inactive)"),
    ("Clc1nc(Cl)nc(Nc2cccc3ccccc23)n1", "OVCAR-3", "0.0436 µM (active)"),
    ("COC(=O)c1c(O)ccc2c1c1c(n2Cc2cccc(C)c2)C(=O)c2ccccc2C1", "OVCAR-3", "12.6 µM (inactive)"),
]

Provide GI50 for all items below, preserving their order.
1. C/C=C(\C)c1cc(=O)c2c(C)cc3c(c2o1)C(OC)(OC(C)=O)c1c(O)c(C2CC(C)(N(C)C)C(OC(C)=O)C(C)O2)cc(C2CC(N(C)C)C(OC(C)=O)C(C)O2)c1C3=O (stereo not given)
2. C=CCN(N=O)C(=O)N(CCC)CCCCC(NC(C)=O)C(=O)NCc1ccccc1 (stereo not given)
3. C=CCc1cc(-c2cc(CC=C)c(O)c(CN(CC)CC)c2)cc(CN(CC)CC)c1O
4. CSC(=N\c1ccccc1)/N=C(\SCc1ccccc1)N(C)C
5. Cc1ccc(C(=O)NCc2ccccc2)cc1/N=N/N(C)C
6. COc1ccc(/C=C2\C(=O)N(C(=O)c3ccc(NC(C)=O)cc3)N=C2C)cc1OC
7. CC1[C@@H](OCc2ccccc2)COC(=O)N1Cc1ccccc1 (stereo not given in full)
8. Cc1cc(N(CCC#N)S(=O)(=O)c2ccccc2)ccc1/C=C1N=C(/C=C/c2ccccc2)OC\1=O

1: 2.28 µM (inactive); 2: 75.5 µM (inactive); 3: 64 µM (inactive); 4: 0.869 µM (active); 5: 44.3 µM (inactive); 6: > 100 µM (inactive); 7: > 100 µM (inactive); 8: > 100 µM (inactive)

Batch lookup, GI50 per entry.
1. CCOC(=O)c1cnn2c1ncc1c(=O)n(NC(N)=O)ccc12
2. C=CCOC1=C(OCC=C)C(C2COC(C)(C)O2)OC1=O (stereo not given)

["> 100 µM (inactive)", "> 100 µM (inactive)"]

For each of the items listed, what is its GI50?
1. CC(=O)c1sc2c(c1O)c(=O)n(-c1ccccc1)c(=S)n2-c1ccccc1
2. COC(=O)[C@H](CC(C)C)NC(=O)[C@H](Cc1ccccc1)N1CC2C=CC1C2 (stereo not given in full)
3. C[C@H](CCC(=O)O[C@@H]1CC[C@@]2(C)C(CC[C@H]3[C@@H]4CC[C@H]([C@H](C)CCc5nc6ccccc6[nH]5)[C@@]4(C)CC[C@@H]32)C1)[C@H]1CC[C@H]2[C@@H]3CCC4C[C@H](O)CC[C@]4(C)[C@H]3CC[C@]12C (stereo not given in full)
4. Oc1ncc(Cl)c(O)n1
5. O=C(O)[C@@H]1C2CC([C@@H]1C(=O)O)[C@H](N1C(=O)CCC1=O)[C@@H]2Br (stereo not given in full)

["> 100 µM (inactive)", "> 100 µM (inactive)", "> 100 µM (inactive)", "> 100 µM (inactive)", "> 100 µM (inactive)"]

Batch of 4 compounds: report GI50 for each.
1. COc1ccc(C=O)c([N+](=O)[O-])c1
2. Nc1c(O)c(C(=O)O)cc2ccccc12
3. Nc1nc(N)c2c(n1)NC(=O)c1c(c3ccccc3n1Cc1ccc(Cl)cc1)C2
4. O=S1(=O)OCCOS(=O)(=O)C1Cc1nc2ccccc2[nH]1

["27.9 µM (inactive)", "24.3 µM (inactive)", "23.3 µM (inactive)", "45.8 µM (inactive)"]

###

Test system: UO-31
Assay: NCI tumour cell line growth inhibition, 48 h
The source made the active and inactive calls. Rule as the data show it: active = GI50 up to about 1.1 µM and inactive = higher.
QUANTITY: GI50

Answered examples (5):
# MOLECULE, MEASURED
rows = [
    ("Cc1nnc(S(=O)(=O)c2ccc(/N=N/c3c(N)nc(N)nc3N)cc2)s1", "> 100 µM (inactive)"),
    ("Cc1cccc2c1C(=O)OC2(C)c1cccc2ccccc12 (stereo unspecified)", "32.8 µM (inactive)"),
    ("Cc1cc(S(=O)(=O)NC2=NCCCN2)c(S)cc1Cl", "58.9 µM (inactive)"),
    ("CC(=O)Oc1ccc2c(C)cc(=O)oc2c1OC(C)=O", "26.5 µM (inactive)"),
    ("COc1ccc2nc(NC(=O)C(=O)C(C(=O)c3ccccc3-c3ccccc3)C3OC(=O)c4ccccc43)sc2c1 (stereo unspecified)", "20.7 µM (inactive)"),
]

Each molecule below has a recorded value; state its GI50.
1. COc1cccc(-c2cc(=O)c3ccccc3o2)c1N
2. Cc1c(C(=O)CSc2nc3ccccc3[nH]2)c(=O)n(-c2ccccc2)n1C
3. Nc1ccc(C(=O)NN2C(=O)[C@H](Cl)C2c2ccc(Cl)cc2)cc1 (stereo partly specified)
4. CCC12CCCN3CCc4c(n(c5ccccc45)C(O)(C(=O)OC)C1)C32 (stereo unspecified)
5. N=C(N)NCCCC(=O)O
6. COc1ccc(NC(=O)/C(=N\NC(=O)C[n+]2ccccc2)c2c(O)c3ccc(O)cc3oc2=O)c([N+](=O)[O-])c1

1. 36.3 µM (inactive)
2. > 100 µM (inactive)
3. 2.07 µM (inactive)
4. > 100 µM (inactive)
5. > 100 µM (inactive)
6. > 100 µM (inactive)

###

Record form. Attribute: GI50. Fill in for each entry.
System: SK-MEL-5
Assay: NCI tumour cell line growth inhibition, 48 h
Active and inactive are the calls of the source. No stated cut-off is given here; in the data, active = GI50 up to about 1.1 µM and inactive = higher.

Please review the entries below; each comes with its answer.
# MOLECULE, GI50
data = [
    ("C=CCOC1=C(OCC=C)C(C2COC(C)(C)O2)OC1=O (stereo not given)", "> 100 µM (inactive)"),
    ("CCCn1cc2c(O)nc(SC)nc2n1", "> 100 µM (inactive)"),
    ("CCOC(=O)C1S/C(=N/c2ccc(Cl)cc2C)N=C1C (stereo not given)", "16.2 µM (inactive)"),
    ("CC(C)(Oc1ccc(Cl)cc1)C(=O)N(C(=O)N1CCN(c2ccccc2)CC1)c1ccccc1", "4.68 µM (inactive)"),
    ("O=C1Nc2ccccc2C(=O)/C1=C/NC(=S)NCc1ccccc1", "> 100 µM (inactive)"),
    ("CN(C)c1ccc(/C=C(/NC(=O)c2ccccc2)C(=O)Nc2ccccc2C(=O)O)cc1", "> 100 µM (inactive)"),
]

Please give GI50 for each item listed below.
1. O=C1CCCCC[C@]12SC[C@H]1CON=C12
2. COC(=O)c1cc(-c2ccc(-c3ccc(O)cc3)cc2)cc(-c2ccc(-c3ccc(O)cc3)cc2)c1
3. COc1ccc(C2C(Cl)C(=O)N2NC(=O)c2ccccc2O)cc1 (stereo not given)
4. O=C(NCCc1ccccn1)c1ccc2cc(C(=O)N3CC(CCl)c4ccc([N+](=O)[O-])cc43)[nH]c2c1 (stereo not given)

> 100 µM (inactive)
17 µM (inactive)
> 100 µM (inactive)
> 61.5 µM (inactive)
